system: IGROV1 ovarian; test: NCI tumour cell line growth inhibition, 48 h
endpoint.label: TGI

| molecule | endpoint.label | reported.value |
| --- | --- | --- |
| C/C(=N\NC(=S)Nc1ccccc1)c1nc2ncccc2[nH]1 | TGI | 24.2 µM |

Please look up its TGI: Sc1ccccc1S
> 100 µM

Quick one: O=C1c2ccccc2C(=Nc2ccc3ccccc3c2)C1(C1=C(c2ccccc2)C(=Nc2ccc3ccccc3c2)c2ccccc21)c1ccccc1 (centres undefined)
> 100 µM

Next entry: CCOC(=O)Cc1csc(NC(=O)COC(=O)c2ccc(N)cc2)n1
49.8 µM

###

Below, each of the molecules is paired with its reported TGI value.
tested on: HCT-116 colon; assay: NCI tumour cell line growth inhibition, 48 h
Give the number; µM is assumed, so skip it.

| sample.smiles | reported.value |
| --- | --- |
| COc1ccc(-c2csc(-n3c(-c4ccccc4)nc4c(Br)cc(Br)cc4c3=O)n2)cc1 | 77.1 |
| Oc1ccc(-c2nc3ccc4ccccc4c3c3c2CCCC3)c(O)c1 | 22.6 |
| Cc1c(NC(=O)/C(=N/NC(=S)N=N)C2C(=O)CC(C)(C)CC2=O)c(O)c2ccccc2c1O | 13.7 |

So what's the measured TGI for this one? O=[N+]([O-])c1ccc(C(Br)c2ccc([N+](=O)[O-])cc2)cc1
4.06

CCN1C(=O)C(=C/C=C/c2ccc(OC)cc2)C(=O)N(CC)C1=S , same question.
31.8
